# System: MDA-MB-468
# Experiment notes: Antiproliferative activity against human MDA-MB-468 cells harbouring STAT3 assessed as reduction in cell viability incubated for 72 hrs by CyQuant assay
# Assay type: functional, cell-based
# Run parameters: MDA-MB-468, 72 h
Measured metric: pEC50
One number for each entry, as −log10 of the molar value.

O=C([C@H]1CCN1S(=O)(=O)c1c(F)c(F)c(F)c(F)c1F)N(Cc1ccc(C2CCCCC2)cn1)c1ccc2nn[nH]c2c1 5.29

Each molecule below has a reported value. Please supply its pEC50.
1. O=C([C@H]1CCN1S(=O)(=O)c1c(F)c(F)c(F)c(F)c1F)N(Cc1ccc(C2CCCCC2)cc1)c1ccc2c(=O)[nH]ncc2c1
2. Cn1cnc2cc(N(Cc3ccc(C4CCCCC4)cn3)C(=O)[C@H]3CCN3S(=O)(=O)c3c(F)c(F)c(F)c(F)c3F)ccc2c1=O

[5.96, 5.66]

Consider the following items and state reported pEC50 for each.
1. COC(=O)c1ccc(N(Cc2cnc(C3CCCCC3)cn2)C(=O)[C@H]2CCN2S(=O)(=O)c2c(F)c(F)c(F)c(F)c2F)cc1O
2. O=C(NO)c1ccc(N(Cc2ccc(C3CCCCC3)cn2)C(=O)[C@H]2CCN2S(=O)(=O)c2c(F)c(F)c(F)c(F)c2F)c(F)c1

[5.80, 5.38]

* * *

Give EC50 for every item shown.
# System: MDA-MB-468
# Experiment notes: Antiproliferative activity against human MDA-MB-468 cells harbouring STAT3 assessed as reduction in cell viability incubated for 72 hrs by CyQuant assay
# Assay type: functional, cell-based
# Run parameters: MDA-MB-468, 72 h
Show the value, then the unit it is measured in.

The examples below pair each entry with its known result.
O=C(NO)c1ccc(N(Cc2ccc(C3CCOCC3)cc2)C(=O)[C@H]2CCN2S(=O)(=O)c2c(F)c(F)c(F)c(F)c2F)cc1 2.1 µM
O=C1OCc2cc(N(Cc3ccc(C4CCCCC4)cn3)C(=O)[C@H]3CCN3S(=O)(=O)c3c(F)c(F)c(F)c(F)c3F)ccc21 1 µM
NC(=O)c1ccc(N(Cc2ccc(C3CCCCC3)cn2)C(=O)[C@H]2CCN2S(=O)(=O)c2c(F)c(F)c(F)c(F)c2F)cc1O 2.6 µM
O=C([C@H]1CCN1S(=O)(=O)c1c(F)c(F)c(F)c(F)c1F)N(Cc1ccc(C2CCCCC2)cn1)c1ccc2c(=O)[nH]ccc2c1 2 µM
O=C([C@H]1CCN1S(=O)(=O)c1c(F)c(F)c(F)c(F)c1F)N(Cc1ccc(C2CCCCC2)cc1)c1ccc2c(=O)[nH]ccc2c1 3.8 µM
O=C(NO)c1ccc(N(Cc2ccc(C3CCCCC3)cc2)C(=O)[C@H]2CCN2S(=O)(=O)c2c(F)c(F)c(F)c(F)c2F)cc1O 6.4 µM
O=C([C@H]1CCN1S(=O)(=O)c1c(F)c(F)c(F)c(F)c1F)N(Cc1ccc(C2CCCCC2)cn1)c1ccc2c(=O)[nH]cnc2c1 1.5 µM
O=C([C@H]1CCN1S(=O)(=O)c1c(F)c(F)c(F)c(F)c1F)N(Cc1ccc(C2CCCCC2)cn1)c1cc2[nH]ncc2cc1F 3.2 µM

// for each compound in input: emit EC50
1. COC(=O)c1ccc(N(Cc2cnc(C3CCCCC3)cn2)C(=O)[C@H]2CCN2S(=O)(=O)c2c(F)c(F)c(F)c(F)c2F)c(F)c1
2. O=C(NO)c1ccc(N(Cc2ccc(C3CCCCC3)cn2)C(=O)[C@H]2CCN2S(=O)(=O)c2c(F)c(F)c(F)c(F)c2F)cc1O
3. O=C(NO)c1ccc(N(Cc2cnc(C3CCCCC3)cn2)C(=O)[C@H]2CCN2S(=O)(=O)c2c(F)c(F)c(F)c(F)c2F)cc1O
4. CONC(=O)c1ccc(N(Cc2ccc(C3CCCCC3)cn2)C(=O)[C@H]2CCN2S(=O)(=O)c2c(F)c(F)c(F)c(F)c2F)cc1O
5. O=C(NO)c1ccc(N(Cc2ccc(C3CCCC3)cc2)C(=O)[C@H]2CCN2S(=O)(=O)c2c(F)c(F)c(F)c(F)c2F)cc1
6. O=C1NC(=O)c2cc(N(Cc3ccc(C4CCCCC4)cn3)C(=O)[C@H]3CCN3S(=O)(=O)c3c(F)c(F)c(F)c(F)c3F)ccc21

["1.4 µM", "6.2 µM", "5.1 µM", "3.9 µM", "1.8 µM", "1.9 µM"]
